molecular target: RIPK1 (Homo sapiens (Human), UniProt Q13546); experiment: RIPK1 ADP-Glo biochemical kinase assay; conditions: read-out: RIPK1 ADP-Glo Kinase (IC50)
Sequence (Q13546 whole entry, species assumed): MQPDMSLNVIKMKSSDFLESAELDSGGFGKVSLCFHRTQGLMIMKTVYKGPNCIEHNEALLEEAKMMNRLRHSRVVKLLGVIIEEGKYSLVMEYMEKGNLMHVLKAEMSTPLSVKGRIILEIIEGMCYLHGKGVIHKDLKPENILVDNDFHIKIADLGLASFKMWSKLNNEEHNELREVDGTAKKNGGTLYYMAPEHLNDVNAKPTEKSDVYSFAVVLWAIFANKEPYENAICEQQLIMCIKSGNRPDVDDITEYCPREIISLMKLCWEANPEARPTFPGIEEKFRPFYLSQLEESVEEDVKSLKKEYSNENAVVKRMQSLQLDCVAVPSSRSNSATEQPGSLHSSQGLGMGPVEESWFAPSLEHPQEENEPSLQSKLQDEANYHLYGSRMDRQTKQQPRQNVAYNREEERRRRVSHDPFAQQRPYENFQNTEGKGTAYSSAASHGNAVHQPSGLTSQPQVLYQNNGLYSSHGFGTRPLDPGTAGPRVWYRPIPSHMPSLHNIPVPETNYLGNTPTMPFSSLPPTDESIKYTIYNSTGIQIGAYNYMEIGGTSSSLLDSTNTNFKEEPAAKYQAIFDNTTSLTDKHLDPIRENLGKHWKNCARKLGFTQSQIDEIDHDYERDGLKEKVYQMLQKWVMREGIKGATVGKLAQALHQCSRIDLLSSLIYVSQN
Experimental endpoint: log10 IC50 (log10 of the value in µM)
Record value = log10 of IC50 given in µM.

CN1C(=O)[C@@H](NC(=O)n2cc(Cc3ccccc3)cn2)COc2ccc(C#Cc3ccccn3)cc21 | -1.49

Dear colleague, could you please provide log10 IC50 for the compounds listed below?
1. CN1C(=O)[C@@H](NC(=O)c2cc(Oc3cccc(C#N)c3)ccn2)COc2cc(C#CC(C)(C)O)ccc21
2. CN1C(=O)[C@@H](NC(=O)c2cc(Oc3ccccc3)ccn2)COc2ccc(C#CC3(OC(=O)NCCCN4CCOCC4)COC3)cc21
3. CN1C(=O)[C@@H](NC(=O)c2ncn(Cc3ccccc3)n2)COc2ccc(C#CC3(O)COC3)cc21
4. CN1C(=O)[C@@H](NC(=O)c2cc(Oc3ccccc3)ccn2)COc2ccc(N3CC4(CCOCC4)C3)cc21

A.
1. -1.39
2. -1.51
3. -1.96
4. -1.79

Return reported log10 IC50 values for all items listed beneath this line.
1. CN1C(=O)[C@@H](NC(=O)c2cc(Oc3ccc(F)cc3F)ccn2)COc2ccc(C#CC3(O)COC3)cc21
2. CN1CCC(O)(C#Cc2ccc3c(c2)N(C)C(=O)[C@@H](NC(=O)c2cc(Oc4ccc(F)cc4)ccn2)CO3)CC1
3. COc1ccc(-c2ccnc(C(=O)N[C@H]3COc4ccc(C#CC(C)(C)O)cc4N(C)C3=O)c2)cc1
4. CN1C(=O)[C@@H](NC(=O)c2cc(Oc3cccc(F)c3)ccn2)COc2ccc(C#CC3(O)COC3)cc21
5. CN1C(=O)[C@@H](NC(=O)c2n[nH]c(Cc3ccccc3)n2)COc2ccc(CCC(=O)Nc3ccc4cccnc4c3)cc21
6. CN1C(=O)[C@@H](NC(=O)c2cc(Oc3ccccc3)ccn2)COc2ccc(C#CC3(F)COC3)cc21
7. CN1C(=O)[C@@H](NC(=O)c2n[nH]c(Cc3ccccc3)n2)COc2ccc(C#CC3(O)CCOCC3)cc21
8. CN1C(=O)[C@@H](NC(=O)c2n[nH]c(Cc3ccccc3)n2)COc2ccc(/C=C/C(=O)NC3CC3)cc21

A.
1. -1.69
2. -0.95
3. -0.51
4. -1.62
5. -1.28
6. -1.45
7. -1.47
8. -1.45

Entry CN1C(=O)[C@@H](NC(=O)c2n[nH]c(Cc3ccccc3)n2)COc2ccc(C#Cc3ccc4c(c3)CNCC4)cc21 ; log10 IC50 = -1.13

* * *

molecular target: RIPK1 (Homo sapiens (Human)); experiment: RIPK1 ADP-Glo biochemical kinase assay; conditions: read-out: RIPK1 ADP-Glo Kinase (IC50)
Experimental endpoint: pIC50
One number for each entry, as −log10 of the molar value.

Consider the reported pIC50 for these molecules:
CN1C(=O)[C@@H](NC(=O)c2n[nH]c(Cc3ccccc3F)n2)COc2ccc(C#CC(C)(C)C)cc21 | 7.28
CN1C(=O)[C@@H](NC(=O)c2cc(Oc3ccccc3)ccn2)COc2cc(C#Cc3ccccn3)ccc21 | 7.34

Report pIC50 for each item below.
1. CN1C(=O)[C@@H](NC(=O)c2ccn(Cc3ccccc3)n2)COc2ccc(C#CC(C)(C)O)cc21
2. CN1C(=O)[C@@H](NC(=O)c2cc(Oc3ccccc3)ccn2)COc2ccc(C#Cc3cccc(C#N)n3)cc21
3. CC(C)[C@H](N)C(=O)OC1(C#Cc2ccc3c(c2)N(C)C(=O)[C@@H](NC(=O)c2cc(Oc4ccccc4)ccn2)CO3)COC1 [Compound I-160]
4. CN1C(=O)[C@@H](NC(=O)c2n[nH]c(Cc3ccccc3)n2)COc2ccc(C#CCCOc3ccc4ncccc4c3)cc21
5. CN1C(=O)[C@@H](NC(=O)n2cc(Cc3ccccc3)cn2)COc2ccc(C#CC3(O)COC3)cc21

A.
7.49
7.00
7.60
7.17
7.73

* * *

target: RIPK1 (Homo sapiens (Human), UniProt Q13546); assay: RIPK1 ADP-Glo biochemical kinase assay; conditions: read-out: RIPK1 ADP-Glo Kinase (IC50)
pIC50: −log10 of the molar value.
Criterion: pIC50 meeting or surpassing 7. Met: 1.0. Not met: 0.0.

// known answers, use as guide
CC(C)Cn1cnc(C(=O)N[C@H]2COc3ccc(C#CC(C)(C)O)cc3N(C)C2=O)n1 | 1.0
CN1C(=O)[C@@H](NC(=O)c2cc(Oc3cccc(F)c3)ccn2)COc2ccc(C#CC(C)(C)O)cc21 | 1.0
CN1C(=O)[C@@H](NC(=O)c2cc(Oc3ccc(F)cc3)ccn2)COc2ccc(C#CC3(O)CCNCC3)cc21 | 0.0
CN1C(=O)[C@@H](NC(=O)c2cc(Oc3ccccc3)ccn2)COc2ccc(C#CC(=O)O)cc21 | 1.0
C[C@H](NC(=O)OC(C)(C)C)C(=O)OCC(C)(C)C#Cc1ccc2c(c1)N(C)C(=O)[C@@H](NC(=O)c1cc(Oc3ccccc3)ccn1)CO2 | 0.0

Q. Is the recorded value of pIC50 equal to or greater than 7 for this compound? CN1C(=O)[C@@H](NC(=O)c2ncn(Cc3ccccc3)n2)COc2cc(CN3CCn4nc(C(F)(F)F)nc4C3)ccc21
A. 1.0

Q. Item CN1C(=O)[C@@H](NC(=O)c2n[nH]c(Cc3cccc(F)c3)n2)COc2ccc(C#CC(C)(C)O)cc21 with pIC50 of 7 or above?
A. 1.0

Q. Check this compound for pIC50 at or above 7: CN1C(=O)[C@@H](NC(=O)c2cc(Oc3cccc(F)c3)ccn2)COc2ccc(C#CC(C)(C)C)cc21
A. 0.0

Q. Given the entry CN1C(=O)[C@@H](NC(=O)c2cc(Oc3c(F)cccc3F)ccn2)COc2ccc(C#CC(C)(C)O)cc21 , answer whether its pIC50 meets or surpasses 7.
A. 1.0

Q. API: above_or_equal(metric=pIC50, cutoff=7) for item CN1C(=O)[C@@H](NC(=O)c2n[nH]c(Cc3ccc(F)cc3F)n2)COc2ccc(CCC(=O)N3CCCC3)cc21
A. 1.0

Q. Dear colleague, could you confirm whether CN1C(=O)[C@@H](NC(=O)c2ncn(Cc3ccccc3)n2)COc2ccc(C#CC3(O)CCOCC3)cc21 has pIC50 at or above 7?
A. 1.0

Q. Kindly determine if pIC50 recorded for CN1C(=O)[C@@H](NC(=O)c2n[nH]c(Cc3ccccc3)n2)COc2ccc(C#CC(C)(C)C)cc21 is above or exactly 7.
A. 1.0

* * *

tested on: L929 cells; assay: L929 cell necroptosis assay (TNFa + zVAD, CellTiter-Glo); type: cell-based, murine; details: Mus musculus, L929, L929 cells, TNFa + zVAD; read-out: L929-CTG-recovery, L929, TNFa + zVAD (IC50)
So I've got a bunch of compounds here, and I need their pIC50 values.
Answers are plain numbers, as −log10 of the molar value.

CN1C(=O)[C@@H](NC(=O)c2n[nH]c(Cc3ccccc3)n2)COc2ccc(/C=C/C(=O)NC3CC3)cc21 | 4.84

Here are 3 compounds. What values of pIC50 were reported for them?
1. CN1C(=O)[C@@H](NC(=O)c2cc(OC3CCCC3)ccn2)COc2ccc(C#CC3(O)COC3)cc21
2. CN1C(=O)[C@@H](NC(=O)c2cc(Oc3ccc(F)cc3F)ccn2)COc2ccc(C#CC(C)(C)O)cc21
3. CN1C(=O)[C@@H](NC(=O)c2ncn(Cc3ccccc3)n2)COc2ccc(C#CC3(O)CCOCC3)cc21

A.
[5.29, 6.60, 9.52]

* * *

system: L929 cells; experiment: L929 cell necroptosis assay (TNFa + zVAD, CellTiter-Glo); type: cell-based, murine; settings: Mus musculus, L929, L929 cells, TNFa + zVAD; read-out: L929-CTG-recovery, L929, TNFa + zVAD (IC50)
Can you tell me IC50 for the items I'm about to list?
Report the figure along with its unit, number first.

CN1C(=O)[C@@H](NC(=O)c2cc(Oc3ccccc3)ccn2)COc2ccc(C#CC(C)(C)N3CCCC3)cc21 | 470 nM

Give IC50 for each of the items listed below.
1. CN1C(=O)[C@@H](NC(=O)c2ncn(Cc3ccccc3F)n2)COc2ccc(CCC(=O)Nc3ccc4cn[nH]c4c3)cc21
2. CN1C(=O)[C@@H](NC(=O)n2cc(Cc3ccccc3)cn2)COc2ccc(C#Cc3ccccn3)cc21
3. CN1C(=O)[C@@H](NC(=O)c2n[nH]c(Cc3ccccc3)n2)COc2ccc(C#CC3(O)CCCC3)cc21

A.
1960 nM
20.9 nM
0.5 nM

Batch of 3 compounds: report IC50 for each.
1. CN1C(=O)[C@@H](NC(=O)c2cc(Oc3ccccc3)ccn2)COc2ccc(C#CC3(O)CCC3)cc21
2. COC(=O)C(C)(C)C#Cc1ccc2c(c1)N(C)C(=O)[C@@H](NC(=O)c1n[nH]c(Cc3ccccc3)n1)CO2
3. CN1C(=O)[C@@H](NC(=O)c2ncn(Cc3c(Cl)cccc3Cl)n2)COc2ccc(CCC(=O)NC3CC3)cc21

A.
1: 61.5 nM; 2: 2.4 nM; 3: 1300 nM
